- experimental-target: α-synuclein fibrils (Homo sapiens)
- Construct: made in house; host or cells: E. coli BL21(DE3)RIL
- protocol-summary: ThT competitive assay for α-synuclein fibrils (Table 1)
- Format: binding
- reported-conditions: α-synuclein fibrils; individual determinations; read-out: EC50 (nM) EC50

# query-smiles, EC50 / nM
records = [
    ("COc1ccc2nc(/C=C/c3ccncc3Cl)ccc2c1", 1080),
    ("C(=C\\c1cccs1)/c1ccncc1", 1580),
    ("COC(=O)c1ccc2oc(-c3ccc(-c4ccc(F)nc4)c(C(F)(F)F)c3)nc2c1", 4090),
    ("COc1ccc(/C=C/c2ccc(C=O)s2)cc1", 387),
    ("COCOc1ccc2nc(/C=C/c3ccnc(OC)c3)ccc2c1", 110),
    ("COc1ccc2nc(/C=C/c3ccsc3)ccc2c1", 320),
    ("COc1ccc2nc(/C=C/c3cccnc3C)ccc2c1", 755),
    ("CN(C)c1ccc(/C=C/C=C/c2cccs2)cc1", 180),
    ("Brc1ccc(/C=C/c2cccs2)cc1", 519),
    ("Ic1ccc(/C=C/c2cccs2)cc1", 208),
    ("Brc1ccc2nc(/C=C/c3cnccn3)ccc2c1", 1190),
    ("COc1ccc2nc(/C=C/c3ccccn3)ccc2c1", 504),
    ("Fc1ccc(-c2ccc(-c3nc4cc(Br)ccc4o3)cc2C(F)(F)F)cn1", 4030),
    ("COc1ccc2nc(/C=C/c3ccco3)ccc2c1", 827),
    ("COc1ccc2nc(C#Cc3ccnc(OC)c3)ccc2c1", 609),
    ("COc1ccc2nc(/C=C/c3cccnc3Cl)ccc2c1", 163),
]

====

- experimental-target: α-synuclein fibrils (Homo sapiens, UniProt P37840)
- Construct: made in house; host or cells: E. coli BL21(DE3)RIL
- protocol-summary: ThT competitive assay for α-synuclein fibrils (Table 1)
- Assay type: binding
- reported-conditions: individual determinations; read-out: Ki (nM) α-syn
The label yes is reserved for Ki strictly under 100 nM; no covers values equal to or above it.

# compound, answer-label
rows = [
    ("Ic1ccc(/C=C/c2cccs2)cc1 [TZ-34-63]", "yes"),
    ("COc1ccc(/C=C/c2ccc(C=O)s2)cc1 [TZ-34-41]", "no"),
    ("Brc1ccc(/C=C/c2cnccn2)cc1 [TZ-22-47-1]", "yes"),
    ("CNc1ccc(/C=C/c2ccncc2)cc1 [TZ-20-97]", "yes"),
    ("COc1ccc(C(=O)C2CCN(C(=O)COC(=O)c3ccc(C(C)(C)C)cc3)CC2)cc1 [TZ-20-11]", "no"),
    ("COc1ccc2nc(/C=C/c3cccnc3Cl)ccc2c1 [TZ-36-40]", "yes"),
    ("COc1ccccc1NC(=O)c1ccc(/C=C/c2ccncc2)cc1 [TZ-20-81]", "no"),
]

====

- experimental-target: α-synuclein fibrils (Homo sapiens, UniProt P37840)
- Construct: made in house; host or cells: E. coli BL21(DE3)RIL
- protocol-summary: ThT competitive assay for α-synuclein fibrils (Table 1)
- Format: binding
- reported-conditions: average; read-out: Ki (nM) α-syn (avg)
measured-attribute: Ki (nM)

# query-smiles, u, measurement
records = [
    ("Fc1ccc(/C=C/c2ccsc2)cc1", "nM", 860),
    ("C(=C\\c1ccccc1)/CN1c2ccccc2Oc2ccccc21", "nM", 3060),
    ("CN(C)c1ccc(/C=C/CN2c3ccccc3Oc3ccccc32)cc1", "nM", 3090),
    ("COc1ccc(/C=C/c2ccoc2)cc1", "nM", 551),
    ("COc1ccccc1NC(=O)c1ccc(/C=C/c2ccncc2)cc1", "nM", 150),
    ("O=C(Nc1ccc(I)cc1)c1ccc(/C=C/c2ccncc2)cc1", "nM", 19.8),
    ("COc1ccc(/C=C/c2cncs2)cc1", "nM", 323),
    ("COc1cc(/C=C/c2ccc3cc(OC(C)C)ccc3n2)ccn1", "nM", 49),
    ("COc1ccc(/C=C/c2ccncn2)cc1", "nM", 154),
    ("COc1ccc2nc(/C=C/c3ccnc(Cl)c3)ccc2c1", "nM", 54),
    ("COc1ccc(C2CCN(C(=O)c3ccc(/C=C/c4ccncc4)cc3)CC2)cc1", "nM", 2460),
    ("Ic1ccc(/C=C/c2ccsc2)cc1", "nM", 115),
    ("COc1ccc2nc(/C=C/c3ccnc(Br)c3)ccc2c1", "nM", 152),
    ("COc1ccc2ccc(/C=C/c3ccncc3)nc2c1", "nM", 71.8),
    ("Brc1ccc(/C=C/c2cnccn2)cc1", "nM", 76.7),
    ("COc1ccc(/C=C/c2ccc(-c3nccs3)s2)cc1", "nM", 98.5),
    ("COC(=O)c1ccc2oc(-c3ccc(-c4ccc(F)nc4)c(C(F)(F)F)c3)nc2c1", "nM", 1560),
    ("COc1ccc2nc(/C=C/c3cccs3)ccc2c1", "nM", 403),
    ("COc1ccc(/C=C/c2cccnn2)cc1", "nM", 1140),
    ("COc1ccc2c(c1)NC(=O)/C(=C/C=C/c1ccc([N+](=O)[O-])cc1)S2", "nM", 254),
    ("COc1ccc2nc(/C=C/c3cccnc3Cl)ccc2c1", "nM", 62),
    ("COc1ccc2nc(/C=C/c3ccccc3)ccc2c1", "nM", 196),
    ("COc1ccc2nc(C#Cc3ccnc(OC)c3)ccc2c1", "nM", 233),
    ("CNC(=O)c1ccc(/C=C/c2ccncc2)cc1", "nM", 85.6),
    ("COc1ccc2nc(/C=C/c3cccnc3C)ccc2c1", "nM", 289),
    ("O=[N+]([O-])c1ccc2nc(/C=C/c3cnccn3)ccc2c1", "nM", 926),
    ("COc1ccc(/C=C/c2ccc(C(=O)NCCF)s2)cc1", "nM", 160),
    ("C(=C\\c1ccccc1)/CN1c2ccccc2Sc2ccccc21", "nM", 3880),
]

Reference for the values: patent US10300155B2
